# assay-protocol: PET hydrolysis, aromatic products released after 48 h (umol product/mg enzyme); higher = more PET depolymerization activity
# condition-set: substrate: aFilm; 60 °C; pH 4.5
measured-parameter: PET hydrolysis

chain-sequence | observed-result
ADNPYQRGPDPTRASVAAVNGPFVNTSVSVPTGYGFNGGRIYYPTDTSQGTFGAIAISPGYTALFSAELAWMGPWLASHGFVVIGIETNSRNDFDTARGTQLLAALDYLTQQSPVRDRVDPNRLAVSGHSMGGGGALSAAIRRSSLKAAVGITPYSPSQNLANDRVPTMVISGQADTVVTPSYALGLYNSLPASTESVYLEVAGGDHGFMVGRSNPVLIRTMLPFLKMFVDNDSRYSQFLCPLLDSSGVVTYRSTCPLLPTNPTTPPPTGTPTPTPTSTPTPTPTPTTPPPSGSANE [ESM091] | < 3
QSAEASPPHGPDPTEESITAPRGPFEIDQKTVSRASVRGFGGGTIYYPTDTSEGTFSAVAIAPGYTAGQESLAWLGPRLASQGFVVFTIDTLTRYDQPDSRSRQLLAALDHLTDDSDVADRVDPARRGVMGHSMGGGGSLQAALDDPDLKAAIPMTPWHTTKDFSGVRTPTLIIGAQNDTVAPVSQHAKPFYESLPDDPGKAYLELAGASHFAPNVDNTTIARYSIAWLKRFLDDDTRYEQFLCPPPPDPAISDHQSTCPY [TEP105] | < 3
ATTSFQRGPAPTTASIQATSGPFATSQTTVSRISVTGFGGGDIYYPTSTSSGTFGAVAIAPGYTALRSSMAWLAPRIASQGFVVFNIDTLTTSDQPATRGTELLAALDYLTTRSTVRTRIDTTRLAVMGHSMGGGGTLEAAKSRPSLQAAIPLTPWDLNKSFAGLAVPTLIIGAQADTVAPVSQHAKPFFTSLPSGLDKAYLELAGASHFAPNTSNTTIASISIAWLKRFVDDDTRYDQFLCPGPTVGTAVSQFTTNCPHIS [ESM156] | < 3
